# assay protocol: Assessment of coloration of deodorant or antiperspirant formulations containing perfuming ingredients with or without Haloscent D
# Type: physicochemical
# Design: key: CO: color; COYE: yelow color; VSCOYE: very slight yellow color; SCOYE: slight yellow color; VCOYE: very yellow color; NC: no color; DECO: decoloration; CL: cloud; VCL: very cloud; WH: white; VCOBR: very brown color; COPI: ping color
# setup conditions: DEO ROLL-ON, perfuming ingredient 0.5 wt %; 45° C.; after 15 days
property label: Coloration of deodorant roll-on

These solved cases illustrate the format of a correct answer.
# input Could you share which Coloration of deodorant roll-on value was measured for c1ccc2[nH]ccc2c1 ?
# output NC

# input Item under review: CC(C)=CCC/C(C)=C/CO [(E)-3,7-DIMETHYL-2,6-OCTADIEN-1-OL] . Reported Coloration of deodorant roll-on?
# output NC

# input What value of Coloration of deodorant roll-on has been recorded for this entry: C=C(CC)CCCC(C)(C)O
# output NC

# input # Coloration of deodorant roll-on lookup, item CCCCCOC(=O)c1ccccc1O [AMYLE SALICYLATE, PENTYL 2-HYDROXYBENZOATE]
# output NC

# input // returns reported Coloration of deodorant roll-on for input CCC(=O)OCC(=O)O[C@@H](C)[C@@H]1CCCC(C)(C)C1 [ROMANDOLIDE]
# output NC

Next:
# input Name the reported Coloration of deodorant roll-on value associated with the molecule CC(C)=CCCC(C)CCO (racemic) [(+−)-3,7-DIMETHYL-6-OCTEN-1-OL]
# output NC

# input Given O=C1CC/C=C\CCCCCCCCCC1 [EXALTENONE, (Z)-4-CYCLOPENTADECEN-1-ONE] , state its recorded Coloration of deodorant roll-on.
# output VCL

---

# assay protocol: Assessment of coloration of deodorant or antiperspirant formulations containing perfuming ingredients with or without Haloscent D
# Format: physicochemical
# Design: key: CO: color; COYE: yelow color; VSCOYE: very slight yellow color; SCOYE: slight yellow color; VCOYE: very yellow color; NC: no color; DECO: decoloration; CL: cloud; VCL: very cloud; WH: white; VCOBR: very brown color; COPI: ping color
# setup conditions: DEO STICK + Haloscent D 0.5 wt %, perfuming ingredient 0.5 wt %; 45° C.; after 15 days
property label: Coloration of deodorant stick

Before answering, review these 6 worked examples.
# input What measured Coloration of deodorant stick goes with CC(C)=CCCC(C)CCO (racemic) [(+−)-3,7-DIMETHYL-6-OCTEN-1-OL] ?
# output NC

# input Request the reported Coloration of deodorant stick associated with O=C1CC/C=C\CCCCCCCCCC1 [EXALTENONE, (Z)-4-CYCLOPENTADECEN-1-ONE]
# output NC

# input Name the reported Coloration of deodorant stick value associated with the compound CCCCCOC(=O)c1ccccc1O [AMYLE SALICYLATE, PENTYL 2-HYDROXYBENZOATE]
# output NC

# input What value of Coloration of deodorant stick has been recorded for this entry: CC(C)c1ccc2c(c1)OCC(=O)CO2
# output VCOBR

# input What value of Coloration of deodorant stick has been recorded for this entry: CCC(=O)OCC(=O)O[C@@H](C)[C@@H]1CCCC(C)(C)C1 [ROMANDOLIDE]
# output NC

# input Using the record for c1ccc2[nH]ccc2c1 , report its Coloration of deodorant stick.
# output NC

Further cases:
# input I am curious: what Coloration of deodorant stick value has been reported for C=C(CC)CCCC(C)(C)O ?
# output NC

---

# assay protocol: Assessment of coloration of deodorant or antiperspirant formulations containing perfuming ingredients with or without Haloscent D
# Format: physicochemical
# Design: key: CO: color; COYE: yelow color; VSCOYE: very slight yellow color; SCOYE: slight yellow color; VCOYE: very yellow color; NC: no color; DECO: decoloration; CL: cloud; VCL: very cloud; WH: white; VCOBR: very brown color; COPI: ping color
# setup conditions: DEO ROLL-ON, perfuming ingredient 0.5 wt %; 45° C.; after 15 days
property label: Coloration of deodorant roll-on

# input Endpoint output: Coloration of deodorant roll-on of 1-OXA-12-CYCLOHEXADECEN-2-ONE (A) + 1-OXA-13-CYCLOHEXADECEN-2-ONE [HABANOLIDE] . Value?
# output VCL

# input For the substance shown here, 1-(3,3-dimethyl-1-cyclohexen-1-yl)-4-penten-1-one (A) + 1-(5,5-dimethyl-1-cyclohexen-1-yl)-4-penten-1-one (B) [DYNASCONE] , give the reported Coloration of deodorant roll-on.
# output NC

# input I am curious: what Coloration of deodorant roll-on value has been reported for (+−)-(3E)-3-methyl-4-(2,6,6-trimethyl-2-cyclohexen-1-yl)-3-buten-2-one (A) + (+−)-(1E)-1-(2,6,6-trimethyl-2-cyclohexen-1-yl)-1-penten-3-one (B) [ISORALDEINE 70P] ?
# output NC

# input Recorded Coloration of deodorant roll-on for (+−)-(4E)-3-METHYL-4-CYCLOPENTADECEN-1-ONE (A) + (+−)-(5E)-3-METHYL-5-CYCLOPENTADECEN-1-ONE (B) + (+−)-(5Z)-3-METHYL-5-CYCLOPENTADECEN-1-ONE (C) [MUSCENONE DELTA] , please?
# output SCOYE

---

# assay protocol: Assessment of coloration of deodorant or antiperspirant formulations containing perfuming ingredients with or without Haloscent D
# Assay type: physicochemical
# Design: key: CO: color; COYE: yelow color; VSCOYE: very slight yellow color; SCOYE: slight yellow color; VCOYE: very yellow color; NC: no color; DECO: decoloration; CL: cloud; VCL: very cloud; WH: white; VCOBR: very brown color; COPI: ping color
# setup conditions: DEO STICK + Haloscent D 0.5 wt %, perfuming ingredient 0.5 wt %; 3° C.; after 15 days
property label: Coloration of deodorant stick

# input Reported Coloration of deodorant stick, compound c1ccc2[nH]ccc2c1 [2,3-BENZOPYRROLE] : ____
# output NC

# input Field request: Coloration of deodorant stick | item: CCCCCOC(=O)c1ccccc1O [AMYLE SALICYLATE, PENTYL 2-HYDROXYBENZOATE]
# output NC

# input Bench note: what Coloration of deodorant stick did CCCCCCCCCCCCSC(C)CC(=O)C1C(C)C=CCC1(C)C (centres unmarked) [Haloscent ® D] show?
# output NC

# input Give its Coloration of deodorant stick value. Item: CCC(=O)OCC(=O)O[C@@H](C)[C@@H]1CCCC(C)(C)C1 [ROMANDOLIDE]
# output NC

# input I am curious: what Coloration of deodorant stick value has been reported for CC(C)=CCCC(C)CCO (racemic) [(+−)-3,7-DIMETHYL-6-OCTEN-1-OL] ?
# output SCOYE

# input Fill blank: measured Coloration of deodorant stick of the compound O=C1CC/C=C\CCCCCCCCCC1 [EXALTENONE, (Z)-4-CYCLOPENTADECEN-1-ONE] is ____.
# output NC

# input Any idea what its Coloration of deodorant stick is? The compound is C=C(CC)CCCC(C)(C)O [2-METHYL-6-METHYLIDENEOCTAN-2-OL]
# output SCOYE

Below: the item to evaluate.
# input Can you share its Coloration of deodorant stick? I mean this compound: CC(C)c1ccc2c(c1)OCC(=O)CO2 [CALONE]
# output COPI
